# credit: patent US6177409A

Experiment: in vivo
Details: mouse, in vivo, iv, LD50 ± SD
parameter_measured: LD50 (mg/kg)
Note: unit mg/kg is implicit; provide only the numeric part.

Q: Which LD50 is reported for this compound? Cc1c(O)c(=O)ccn1CC1COC(C)(C)O1 (stereo not shown)
Ans: 817
